tested on: RKOp21 (human colon adenocarcinoma) cells; experiment: XTT cytotoxicity assay, RKOp21 cells; assay type: cell-based; conditions: Homo sapiens; 31.6 μM, second set of experiments; read-out: RKOp21 % INH [31.6 μM]
measure.name: inhibition at 31.6 µM (%)
Give just the number in %; leave the unit off.

Below, each entry is followed by its recorded inhibition at 31.6 µM result.
The reported inhibition at 31.6 µM value, RKOp21 (human colon adenocarcinoma) cells, for `CCCCCCCCC#CCCCCCCCCOP(=O)([O-])OCC[N+](C)(C)C` reads 48

The reported inhibition at 31.6 µM value, RKOp21 (human colon adenocarcinoma) cells, for CCCCCCCCCCCCCCCCOP(=O)([O-])OCC[N+]1(C)CCCC(C(=O)OCC)C1 (stereo not shown) reads 40.5

The reported inhibition at 31.6 µM value, RKOp21 (human colon adenocarcinoma) cells, for `CCCCCCCCCCCCCCCCOP(=O)([O-])OCC[N+]1(C)CCCC1` reads 51.9

The reported inhibition at 31.6 µM value, RKOp21 (human colon adenocarcinoma) cells, for `CCCCCCCCCCCCCCCCOP(=O)([O-])OCC[N+]1(C)CCCCCC1` reads 11.3

The reported inhibition at 31.6 µM value, RKOp21 (human colon adenocarcinoma) cells, for CCCCCCCCCCCCCCCCOP(=O)([O-])OCC[N+](C)(C)C [miltefosine, hexadecylphosphocholine, reference compound] reads 64

Next:
The reported inhibition at 31.6 µM value, RKOp21 (human colon adenocarcinoma) cells, for CCCCCCCCCCCCCCCCOP(=O)([O-])OCC[N+]1(C)C=CC(C(=O)OCC)CC1 (stereo not shown) reads 6.6

The reported inhibition at 31.6 µM value, RKOp21 (human colon adenocarcinoma) cells, for CCCCCCCCCCCCCCCCCCOP(=O)([O-])OC1CC[N+](C)(C)CC1 [perifosine, reference compound] reads 63

Reference for the values: patent US20070167408A1
